Target: T1, mouse MAdCAM expressed on cells (mouse, UniProt Q61826 22-405)
T1 construct: whole, on cells
T1 sequence (looked up): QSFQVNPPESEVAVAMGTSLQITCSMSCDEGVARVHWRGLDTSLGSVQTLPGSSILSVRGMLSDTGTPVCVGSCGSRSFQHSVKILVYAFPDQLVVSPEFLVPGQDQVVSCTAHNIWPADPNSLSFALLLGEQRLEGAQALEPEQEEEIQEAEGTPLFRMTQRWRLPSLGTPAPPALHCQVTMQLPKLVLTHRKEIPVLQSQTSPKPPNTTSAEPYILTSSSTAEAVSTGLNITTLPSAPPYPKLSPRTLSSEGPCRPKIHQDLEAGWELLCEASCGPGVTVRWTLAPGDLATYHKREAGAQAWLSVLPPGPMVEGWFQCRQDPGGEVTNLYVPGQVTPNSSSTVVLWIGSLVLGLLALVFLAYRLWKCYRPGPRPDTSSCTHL
Assay: cell binding
MEASURED_METRIC: binding result

- MAdCAM antibody Table 1 clone 5 (scFv) scFv: EVQLLESGGGLVQPGGSLRLSCAASGFTFSSYWMHWVRQAPGKGLEWVSSISPGGSNIDYADSVKGRFTISRDNSKNTLYLQMNSLRAEDTAVYYCAREVQLSHYDYWGQGTLVTVSSGGGGSGGGGSGGGGSGGGGSDIQMTQSPSSLSASVGDRVTITCRASQGISNSLAWYQQKPGKAPKLLIYGASSLQSGVPSRFSGSGSGTDFTLTISSLQPEDFATYYCQQANSFPFTFGQGTKVEIK: binds
